Values were extracted from patent US10975068B2.

# experimentalSystem: human RORγt ligand binding domain (RORγt LBD) (Homo sapiens (Human), UniProt P51449)
# Sequence (P51449 other isoform, or with tags, fused parts or gaps): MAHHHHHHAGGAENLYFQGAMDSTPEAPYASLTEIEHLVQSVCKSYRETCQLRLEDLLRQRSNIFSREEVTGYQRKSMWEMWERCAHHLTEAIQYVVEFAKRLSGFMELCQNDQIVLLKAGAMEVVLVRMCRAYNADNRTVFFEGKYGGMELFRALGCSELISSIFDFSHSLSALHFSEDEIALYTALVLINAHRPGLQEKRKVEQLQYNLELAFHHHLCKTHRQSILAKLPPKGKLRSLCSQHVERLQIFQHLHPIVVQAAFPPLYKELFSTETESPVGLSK
# experiment: RORγt ThermoFluor® assay (thermal shift binding)
# assayConditions: read-out: ThermoFluor® Assay, Kd
pKd: −log10 of the molar value.
assayEndpoint: pKd

Recorded pKd, per entry:
• C[C@H]1CC(F)(F)CN1C(=O)c1nc(C(=O)NCC(C)(C)O)sc1-c1cnc(NCC2(C(F)(F)F)CCC2)cc1C(F)F = 9.29
• CC[C@H](Nc1cc(C(F)F)c(-c2sc(C(=O)NC3CCC3O)nc2C(=O)N2CCC[C@@H]2C)cn1)C(F)(F)F (stereo partly drawn) [Example 379] = 8.62

a = CC(C)(O)CNC(=O)c1nc(C(=O)N2CCC(F)CC2)c(-c2cnc(NC3CCCCC3)c(C(F)(F)F)c2)s1
b = C[C@H]1CCCN1C(=O)c1nc(C(=O)N[C@@H]2CC[C@H]2O)sc1-c1cnc(NC(C)(C)C)cc1C(F)(F)F (relative stereo)
c = C[C@H]1CCCN1C(=O)c1nc(C(=O)NC2CCS(=O)(=O)CC2)sc1-c1cnc(NC2(C)CCC2)cc1C(F)F
d = C[C@H]1CCCN1C(=O)c1nc(C(=O)N2CC[C@H](O)C2)sc1-c1cnc(NC(C)(C)C)cc1C(F)(F)F
Exam item: list the entries in increasing order of pKd. # format: label list in the order the request specifies
a, d, c, b
(a: 7.46, d: 8.08, c: 8.62, b: 9.16)

---

# experimentalSystem: human RORγt ligand binding domain (RORγt LBD) (Homo sapiens (Human), UniProt P51449)
# experiment: RORγt ThermoFluor® assay (thermal shift binding)
# assayConditions: read-out: ThermoFluor® Assay, Kd
pKd: −log10 of the molar value.
assayEndpoint: pKd

// worked examples, pKd included
- C[C@H]1CCCN1C(=O)c1nc(C(=O)N2CC[C@@H](O)C2)sc1-c1cnc(NC(C)(C)C)cc1C(F)(F)F: 7.96
- CNC(=O)c1nc(C(=O)N2CCC[C@@H]2C)c(-c2cnc(NC(C)(C)C)cc2C(F)(F)F)s1: 7.37
- C[C@H]1CCCN1C(=O)c1nc(C(=O)NC2CCOCC2)sc1-c1cnc(NC(C)(C)C)cc1C(F)(F)F: 8.80
- CC(C)(O)CNC(=O)c1nc(C(=O)N2C3CCC2CC3)c(-c2cnc(NC3CCCC3)cc2C(F)(F)F)s1: 8.24
- C[C@H]1CC(F)(F)CN1C(=O)c1nc(C(=O)N[C@H]2C[C@H](O)C2)sc1-c1cnc(NC2(C)CCC2)cc1C(F)F: 8.70

P = C[C@H](Nc1cc(C(F)(F)F)c(-c2sc(C(=O)N[C@H](C)C(C)(C)O)nc2C(=O)N2CC(F)(F)C[C@@H]2C)cn1)C1CC1
Q = C[C@H]1CCCN1C(=O)c1nc(C(=O)N2CC[C@@](C)(O)C2)sc1-c1cnc(NC(C)(C)C)cc1C(F)(F)F (relative stereo)
R = C[C@H](Nc1cc(C(F)F)c(-c2sc(C(=O)N[C@H]3COC[C@@H]3O)nc2C(=O)N2CC(F)(F)C[C@@H]2C)cn1)C(F)(F)F
With regard to pKd, arrange the entries in ascending order, please. Order the labels as requested and list them.
Q, R, P

I = C[C@H](Nc1cc(C(F)(F)F)c(-c2sc(C(=O)N[C@@H](C)C(C)(C)O)nc2C(=O)N2CC(F)(F)C[C@@H]2C)cn1)C1CC1
II = C[C@H]1CCCN1C(=O)c1nc(C(=O)NCC(C)(C)O)sc1-c1cnc(N[C@@H](C2CC2)C(F)(F)F)cc1C(F)F
III = Cc1cc(NC2CCCCC2)ncc1-c1sc(C(=O)NCC(C)(C)O)nc1C(=O)N1CCC(F)CC1
Rank entries according to their pKd, from the largest number down. Order the labels as requested and give them as your answer.
I, II, III
(I: 8.89, II: 8.54, III: 7.28)

---

# experimentalSystem: full-length human RORγt (Homo sapiens (Human), UniProt P51449)
# Sequence (P51449 other isoform, or with tags, fused parts or gaps): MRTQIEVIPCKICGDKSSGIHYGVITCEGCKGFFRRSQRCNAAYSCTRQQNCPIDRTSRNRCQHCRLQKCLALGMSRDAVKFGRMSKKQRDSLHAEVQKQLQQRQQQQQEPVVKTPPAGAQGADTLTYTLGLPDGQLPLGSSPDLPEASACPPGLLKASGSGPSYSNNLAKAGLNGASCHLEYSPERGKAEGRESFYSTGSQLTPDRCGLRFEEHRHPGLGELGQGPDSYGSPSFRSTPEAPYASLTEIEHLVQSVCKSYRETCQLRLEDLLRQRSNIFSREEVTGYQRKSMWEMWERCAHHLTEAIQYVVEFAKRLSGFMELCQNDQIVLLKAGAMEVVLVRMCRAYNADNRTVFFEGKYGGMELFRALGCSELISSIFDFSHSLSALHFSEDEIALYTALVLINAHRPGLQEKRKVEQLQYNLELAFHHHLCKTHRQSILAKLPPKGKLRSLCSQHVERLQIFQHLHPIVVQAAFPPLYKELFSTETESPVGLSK
# experiment: RORγt (full-length human) reporter assay, Conditions B or C
# Format: cell-based
# assayConditions: Conditions B or C; read-out: RORγt (FL) Reporter Assay B or C, IC50
pIC50: −log10 of the molar value.
assayEndpoint: pIC50

Take a look at these entries with their results.
• C[C@H]1CCCN1C(=O)c1nc(C(=O)NCC(C)(C)O)sc1-c1cnc(NCC2(C(F)(F)F)CCC2)cc1C(F)(F)F = 8.48
• CC(C)(C)CNc1cc(C(F)F)c(-c2sc(C(=O)NCC(C)(C)O)nc2C(=O)N2C3CCC2CC3)cn1 = 7.47
• C[C@H]1CC(F)(F)CN1C(=O)c1nc(C(=O)NCC(C)(C)O)sc1-c1cnc(NC2(C)CCC2)cc1C(F)(F)F = 7.64
• CC[C@H](Nc1cc(C(F)(F)F)c(-c2sc(C(=O)N[C@H]3COC[C@@H]3O)nc2C(=O)N2CCC[C@@H]2C)cn1)C(F)(F)F = 7.60
• C[C@H]1CC(F)(F)CN1C(=O)c1nc(C(=O)NCC(C)(C)O)sc1-c1cnc(NCC(C)(C)C)cc1C(F)F = 7.55
• CCC(C)(C)Nc1cc(C(F)(F)F)c(-c2sc(C(=O)NCC(C)(C)O)nc2C(=O)N2CCCC[C@@H]2C)cn1 = 7.33

A = CC[C@@H](Nc1cc(C(F)F)c(-c2sc(C(=O)N[C@@H](C)C(C)(C)O)nc2C(=O)N2CCC[C@@H]2C)cn1)C(F)(F)F
B = C[C@H]1CCCN1C(=O)c1nc(C(=O)NCC(C)(C)O)sc1-c1cnc(NCC(C)(C)C(F)(F)F)cc1C(F)(F)F
C = CC[C@H](Nc1cc(C(F)F)c(-c2sc(C(=O)NC3CS(=O)(=O)C3)nc2C(=O)N2CCC[C@@H]2C)cn1)C(F)(F)F
D = C[C@H]1CCCN1C(=O)c1nc(C(=O)NCC(C)(C)O)sc1-c1cnc(NC2(C(F)(F)F)CC2)cc1C(F)(F)F
Given 4 compounds, produce a descending ranking by pIC50. To answer, write out the labels according to the requested order.
A, B, C, D
(A: 7.82, B: 7.59, C: 7.24, D: 6.92)

a = C[C@H](Nc1cc(C(F)(F)F)c(-c2sc(C(=O)NCC(C)(C)O)nc2C(=O)N2CCCC[C@@H]2C)cn1)C1CC1
b = CC[C@@H](Nc1cc(C(F)F)c(-c2sc(C(=O)N[C@H]3C[C@H](O)C3)nc2C(=O)N2CCC[C@@H]2C)cn1)C(F)(F)F
c = CC[C@H](Nc1cc(C(F)F)c(-c2sc(C(=O)NCC(C)(C)O)nc2C(=O)N2CC(F)(F)C[C@@H]2C)cn1)C(F)(F)F
d = C[C@@H](Nc1cc(C(F)F)c(-c2sc(C(=O)NCC(C)(C)O)nc2C(=O)N2CCC[C@@H]2C)cn1)C1CC1
Arrange these compounds by their pIC50, starting with the largest number. Output spec: labels arranged per the requested ranking.
a, b, d, c
(a: 7.89, b: 7.48, d: 7.24, c: 6.96)

A = C[C@H]1CCCCN1C(=O)c1nc(C(=O)NC2CCS(=O)(=O)CC2)sc1-c1cnc(NC2CCCC2)cc1C(F)(F)F
B = C[C@H]1CCCN1C(=O)c1nc(C(=O)NCC(C)(C)O)sc1-c1cnc(N[C@H](C)C(F)(F)F)cc1C(F)(F)F
Smaller pIC50 value, A vs B ? API: response body contains the label of the selected item.
B
(B: 7.34, A: 7.85)

a = CC[C@H](Nc1cc(C(F)F)c(-c2sc(C(=O)N[C@H](C)[C@@H](C)O)nc2C(=O)N2CCC[C@@H]2C)cn1)C(F)(F)F (relative stereo)
b = C[C@H](Nc1cc(C(F)(F)F)c(-c2sc(C(=O)NCC(C)(C)O)nc2C(=O)N2CCC(F)CC2)cn1)C1CC1
c = C[C@H](Nc1cc(C(F)F)c(-c2sc(C(=O)NCC(C)(C)O)nc2C(=O)N2CC(F)(F)C[C@@H]2C)cn1)C(F)(F)F
Please list the entries, largest pIC50 first. Reply: labels, ordered per the request.
a, b, c
(a: 8.02, b: 7.70, c: 7.41)

a = C[C@H]1CCCN1C(=O)c1nc(C(=O)NCC2(O)CCC2)sc1-c1cnc(NC2CCCC2)cc1C(F)F
b = C[C@H](Nc1cc(C(F)F)c(-c2sc(C(=O)N[C@@H](C)C(C)(C)O)nc2C(=O)N2CC(F)(F)C[C@@H]2C)cn1)C1CC1
Pick one: a or b . Which one has the lower reported pIC50? Identify your selection by its label.
b

---

# experimentalSystem: UniProtKB P51449
# experiment: RORγt (full-length human) reporter assay, Conditions B or C
# Type: cell-based
# assayConditions: at 1 μM compound concentration; read-out: RORγt (FL) Reporter Assay B or C, % inhibition
assayEndpoint: inhibition at 1 µM (%)

- O=C(N[C@@H]1COC[C@H]1O)c1nc(C(=O)N2C3CCC2CC3)c(-c2cnc(N[C@@H](C3CC3)C(F)(F)F)cc2C(F)F)s1: 96
- O=C(N[C@H]1COC[C@@H]1O)c1nc(C(=O)N2C3CCC2CC3)c(-c2cnc(N[C@@H](C3CC3)C(F)(F)F)cc2C(F)F)s1: 94
- C[C@H]1CCCN1C(=O)c1nc(C(=O)N2CC[C@](C)(O)C2)sc1-c1cnc(NC(C)(C)C)cc1C(F)(F)F (relative stereo): 92
- O=C(NC1CCS(=O)(=O)CC1)c1nc(C(=O)N2C3CCC2CC3)c(-c2cnc(N[C@@H](C3CC3)C(F)(F)F)cc2C(F)F)s1: 117
- C[C@H](Nc1cc(C(F)(F)F)c(-c2sc(C(=O)N[C@H]3COC[C@H]3O)nc2C(=O)N2C3CCC2CC3)cn1)C(F)(F)F (single isomer, unassigned): 78
- CC[C@H](Nc1cc(C(F)F)c(-c2sc(C(=O)N[C@H]3CC[C@H](O)C3)nc2C(=O)N2CC(F)(F)C[C@@H]2C)cn1)C(F)(F)F: 89
